Measured values drawn from patent US9598390B2 for this set.

- system-tested: human GPR120 (Homo sapiens, UniProt Q5NUL3)
- Sequence (Q5NUL3 1-361): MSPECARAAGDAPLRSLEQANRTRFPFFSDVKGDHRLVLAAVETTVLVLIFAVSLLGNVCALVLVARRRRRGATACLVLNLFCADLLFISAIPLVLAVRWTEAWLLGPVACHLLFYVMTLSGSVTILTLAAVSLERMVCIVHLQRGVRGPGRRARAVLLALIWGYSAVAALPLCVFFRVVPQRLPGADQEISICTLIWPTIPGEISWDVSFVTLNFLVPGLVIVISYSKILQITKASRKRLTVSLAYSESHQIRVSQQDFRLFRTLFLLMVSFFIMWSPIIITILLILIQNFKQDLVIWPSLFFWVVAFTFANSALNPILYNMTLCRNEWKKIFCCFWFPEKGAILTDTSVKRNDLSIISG
- method-notes: GPR120 pERK AlphaScreen SureFire Assay (human GPR120 pERK assay)
- experimental-parameters: CHO cells stably transfected with the short form of human GPR120 receptor
measured-parameter: pEC50
One number for each entry, as −log10 of the molar value.

Some solved cases for reference:
O=C(O)CCC12CCC(OCc3cc(F)cc(Oc4ccc(F)cc4)c3)(CC1)CC2 [Example 12] : 6.27
O=C(O)CCC12CCC(OCc3ccccc3Oc3ccccc3)(CC1)CC2 [Example 6] : 6.40
O=C(O)CCC12CCC(OCc3cccc(Oc4ccccc4)c3)(CC1)CC2 [Example 5] : 6.37
COc1cccc(COC23CCC(CCCC(=O)O)(CC2)CC3)c1 [Example 7] : 5.16
O=C(O)CCC12CCC(OCc3cc(F)ccc3Oc3ccccc3)(CC1)CC2 [Example 9] : 6.55

Give pEC50 for each of the items listed below.
1. CC1(C)Cc2cccc(OCC34CCC(CCC(=O)O)(CC3)CC4)c2O1 [Example 14]
2. CC1(C)Cc2cc(Cl)cc(OCC34CCC(CCC(=O)O)(CC3)CC4)c2O1 [Example 15]
3. O=C(O)COCC12CCC(OCc3cccc(Oc4ccccc4)c3)(CC1)CC2 [Example 10]
4. CC(C)Oc1cc(F)cc(COC23CCC(CCC(=O)O)(CC2)CC3)c1 [Example 11]

[out]
6.05
5.87
6.17
6.06

Give pEC50 for each of the items listed below.
1. CC1(C)Cc2cc(Cl)cc(COC34CCC(CCC(=O)O)(CC3)CC4)c2O1 [Example 1]
2. N#Cc1cccc(OC23CCC(CCCC(=O)O)(CC2)CC3)c1 [Example 3]
3. CC1(C)Cc2cc(Cl)cc(COC34CCC(CCCC(=O)O)(CC3)CC4)c2O1 [Example 2]
4. CC1(C)Cc2cc(Cl)cc(OCC34CCC(/C=C/C(=O)O)(CC3)CC4)c2O1 [Example 13]
5. O=C(O)CCC12CCC(OCc3cc(F)cc(Oc4ccccc4)c3)(CC1)CC2 [Example 8]
6. Cc1cc(COC23CCC(CCC(=O)O)(CC2)CC3)n(-c2ccc(Cl)cc2)n1 [Example 4]

[out]
[6.21, 5.95, 5.61, 5.57, 6.57, 5.56]
